// provenance: patent US20230331817A1

- study.system: T1, human FXIa (Homo sapiens, UniProt P03951)
- T1 construct: Purified human FXIa, thrombin (IIa) and plasmin were purchased; purchased Hematologic Technologies Inc (Essex Junction, VT)
- T1 sequence (P03951 19-387 limits assumed): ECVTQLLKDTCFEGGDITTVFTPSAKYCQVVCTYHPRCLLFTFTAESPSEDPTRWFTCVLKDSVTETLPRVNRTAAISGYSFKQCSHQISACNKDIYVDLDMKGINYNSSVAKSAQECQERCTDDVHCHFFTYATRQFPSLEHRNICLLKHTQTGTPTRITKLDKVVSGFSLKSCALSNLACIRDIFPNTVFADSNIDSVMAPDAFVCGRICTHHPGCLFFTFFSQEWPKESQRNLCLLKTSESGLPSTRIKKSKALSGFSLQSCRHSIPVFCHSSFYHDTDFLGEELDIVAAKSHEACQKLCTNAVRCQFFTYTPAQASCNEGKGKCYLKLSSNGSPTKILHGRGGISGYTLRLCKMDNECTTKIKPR
- T1 sequence (P03951 388-625 limits assumed): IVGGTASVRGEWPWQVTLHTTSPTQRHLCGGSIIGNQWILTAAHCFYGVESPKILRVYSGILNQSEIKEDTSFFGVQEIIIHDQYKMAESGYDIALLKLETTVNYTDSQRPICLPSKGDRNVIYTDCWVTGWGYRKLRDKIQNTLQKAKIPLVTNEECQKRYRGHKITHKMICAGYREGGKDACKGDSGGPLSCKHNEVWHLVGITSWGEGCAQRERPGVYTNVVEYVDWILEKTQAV
- assay: Protease inhibition assay, factor XIa
- Assay type: biochemical
- condition.parameters: 1 nM FXIa
outcome.measure: Ki

Item: KD1-L17R-KT (designed binder, also called KD1SM; single mutant) MGSSHHHHHHSSGHIDDDDKNAEICLLPLDYGPCRARLLRYYYDRYTQSCRQFLYGGCEGNANNFYTWEACDDACWRIEK | Ki: > 3 µM
